target: recombinant human ALX receptor (Homo sapiens, UniProt P25090); assay: Intracellular calcium measurements (FLIPR), ALX receptor agonistic activity; settings: HEK293-hALXR-Gα16 cells, Fluo-4 calcium signal, normalized to WKYMVm 10 nM
pEC50: −log10 of the molar value.
Please enter t where pEC50 is greater than or equal to 7, and f where it is lower.

Check out these entries, answers already filled in.
{"columns": ["Molecule", "Target System", "Group Label"],
 "data": [
  ["COc1ccc(C[C@@H](NC(=O)NC(C)c2ccncn2)c2nc3ccccc3[nH]2)cc1 (stereo partly drawn) [Example 386]", "recombinant human ALX receptor (Homo sapiens, UniProt P25090)", "f"],
  ["COc1ccc(CC(NC(=O)NCc2ccc(Cl)cc2)c2nc3ccccc3[nH]2)cc1 (stereo not drawn) [Example 43]", "recombinant human ALX receptor (Homo sapiens, UniProt P25090)", "f"],
  ["COc1ccc(C[C@@H](NC(=O)NCCN2CCNCC2)c2nc3ccccc3[nH]2)cc1 [Example 150]", "recombinant human ALX receptor (Homo sapiens, UniProt P25090)", "f"]
]}

IN: Textbook exercise: given the entry CC(C)(C)c1ccc(CC(NC(=O)N[C@H]2CC[C@H](O)CC2)c2nc3ccccc3[nH]2)cc1 (relative stereo) [Example 79] , state whether its pEC50 is greater than or equal to 7.
OUT: f

IN: Textbook exercise: given the entry C[C@]1(O)CC[C@H](NC(=O)NC(Cc2ccc(Br)cc2F)c2nc3ccccc3[nH]2)CC1 (mixture of isomers) [Example 253] , state whether its pEC50 is greater than or equal to 7.
OUT: t

* * *

Biological target: recombinant human ALX receptor (Homo sapiens, UniProt P25090)
Construct: expressed in transfected cells; host or cells: HEK293 (HEK293-hALXR-Gα16)
Sequence (P25090 1-351): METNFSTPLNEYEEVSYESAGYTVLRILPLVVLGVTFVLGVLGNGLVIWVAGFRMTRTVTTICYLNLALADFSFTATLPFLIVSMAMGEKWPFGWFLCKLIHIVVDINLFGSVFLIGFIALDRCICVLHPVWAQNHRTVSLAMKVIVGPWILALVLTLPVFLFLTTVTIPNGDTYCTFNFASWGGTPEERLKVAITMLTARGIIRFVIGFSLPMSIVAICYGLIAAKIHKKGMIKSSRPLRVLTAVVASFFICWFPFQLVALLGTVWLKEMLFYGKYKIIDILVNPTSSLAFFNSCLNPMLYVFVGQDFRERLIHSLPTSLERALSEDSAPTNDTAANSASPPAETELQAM
Assay: Intracellular calcium measurements (FLIPR), ALX receptor agonistic activity
Type: cell-based
Details: HEK293-hALXR-Gα16 cells, Fluo-4 calcium signal, normalized to WKYMVm 10 nM
One threshold, 0.08 µM, splits the recorded EC50 values: lower ones are met, equal or higher ones are not met.

{"columns": ["Molecule", "Group Label"],
 "data": [
  ["COc1ccc(C[C@@H](NC(=O)NCCC2CCNCC2)c2nc3ccccc3[nH]2)cc1 [Example 156]", "not met"],
  ["C[C@]1(O)CC[C@H](NC(=O)NC(Cc2ccc(C(F)(F)F)c(F)c2)c2nc3ccccc3[nH]2)CC1 (mixture of isomers) [Example 239]", "met"],
  ["COc1ccc(CC(NC(=O)Nc2ccnn2Cc2ccccc2)c2nc3ccccc3[nH]2)cc1 (stereo not shown) [Example 415]", "not met"],
  ["COc1ccc(C[C@@H](NC(=O)NC2(c3ccc(Cl)cc3)CC2)c2nc3ccccc3[nH]2)cc1 [Example 355]", "not met"],
  ["O=C(N[C@H](Cc1ccc(C(F)(F)F)cc1)c1nc2cc(F)ccc2[nH]1)N[C@H]1CC[C@H](O)CC1 [Example 265]", "met"]
]}

IN: Hello, I'm reviewing records and need to know if EC50 of COc1ccc(C[C@@H](NC(=O)N[C@H]2CC[C@H](O)CC2)c2nc3cc(C)ccc3[nH]2)cc1 [Example 83] is below 0.08 µM. Could you check?
OUT: met

IN: Hello, I'm reviewing records and need to know if EC50 of COc1ccc(CC(NC(=O)N[C@H]2CC[C@](C)(O)CC2)c2nc3ccccc3[nH]2)c(F)c1F (mixture of isomers) [Example 252] is below 0.08 µM. Could you check?
OUT: met

IN: Hello, I'm reviewing records and need to know if EC50 of COc1ccc(C[C@@H](NC(=O)NCC2CCN(C)CC2)c2nc3ccccc3[nH]2)cc1 [Example 147] is below 0.08 µM. Could you check?
OUT: not met

IN: Hello, I'm reviewing records and need to know if EC50 of COCC(Cc1ccccc1)NC(=O)N[C@H](Cc1ccc(OC)cc1)c1nc2ccccc2[nH]1 (stereo partly shown) [Example 70] is below 0.08 µM. Could you check?
OUT: met

IN: Hello, I'm reviewing records and need to know if EC50 of COc1ccc(C[C@@H](NC(=O)NC2CCN(C(=O)OC(C)(C)C)C2)c2nc3ccccc3[nH]2)cc1 (stereo partly shown) [Example 93] is below 0.08 µM. Could you check?
OUT: met

IN: Hello, I'm reviewing records and need to know if EC50 of COc1ccc(C[C@@H](NC(=O)N[C@@H](C)c2ccc(F)cc2)c2nc3ccccc3[nH]2)cc1 [Example 321] is below 0.08 µM. Could you check?
OUT: not met

IN: Hello, I'm reviewing records and need to know if EC50 of COc1ccc(CC(NC(=O)Nc2ccnn2-c2ccccc2)c2nc3ccccc3[nH]2)cc1 (stereo not shown) [Example 412] is below 0.08 µM. Could you check?
OUT: not met

IN: Hello, I'm reviewing records and need to know if EC50 of COc1ccc(C[C@@H](NC(=O)N[C@H](C)c2ccc(F)cc2)c2nc3ccccc3[nH]2)cc1 [Example 320] is below 0.08 µM. Could you check?
OUT: not met
